molecular target: furin, P09958; assay: furin cleavage Z-score vs untreated control; higher = more cleavage, active = 3.5 or more, inactive = 1 or less, 8 variable residues between constant flanks; settings: 15 min;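 note: purified furin at 1:10 enzyme:substrate in 50 mM HEPES pH 7.5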
Sequence (P09958 whole entry): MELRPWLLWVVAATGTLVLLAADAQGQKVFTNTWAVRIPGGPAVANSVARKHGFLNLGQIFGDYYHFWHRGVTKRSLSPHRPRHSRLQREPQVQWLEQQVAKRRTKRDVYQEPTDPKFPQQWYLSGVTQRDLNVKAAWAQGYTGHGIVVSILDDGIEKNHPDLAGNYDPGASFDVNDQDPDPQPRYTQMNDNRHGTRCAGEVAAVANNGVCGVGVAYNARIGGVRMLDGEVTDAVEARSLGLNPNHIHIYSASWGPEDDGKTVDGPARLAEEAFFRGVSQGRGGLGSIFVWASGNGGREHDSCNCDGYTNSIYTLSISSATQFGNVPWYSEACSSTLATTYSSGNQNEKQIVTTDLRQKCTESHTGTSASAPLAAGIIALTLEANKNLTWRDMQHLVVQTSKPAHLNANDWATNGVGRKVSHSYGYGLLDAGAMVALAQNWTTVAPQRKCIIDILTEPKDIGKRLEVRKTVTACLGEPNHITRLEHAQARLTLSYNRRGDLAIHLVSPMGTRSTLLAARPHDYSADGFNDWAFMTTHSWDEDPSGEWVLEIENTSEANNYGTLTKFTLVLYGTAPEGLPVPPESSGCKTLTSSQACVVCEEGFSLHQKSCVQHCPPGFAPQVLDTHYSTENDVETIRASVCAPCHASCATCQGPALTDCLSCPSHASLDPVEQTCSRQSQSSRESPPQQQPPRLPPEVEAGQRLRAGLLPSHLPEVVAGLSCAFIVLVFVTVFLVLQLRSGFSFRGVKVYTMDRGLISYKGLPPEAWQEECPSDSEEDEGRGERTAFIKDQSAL
The other results are listed elsewhere or left out. How many sequences the whole screen found active is unknown.
As shown below, each of these sequences has a reported furin cleavage Z-score value.
QUANTITY: furin cleavage Z-score

biopolymer_sequence="CARRKKQVGTAGNASASA [FS-2450]" numeric_readout=1.03
biopolymer_sequence="CAEVVDSTWVAGNASASA [HC132]" numeric_readout=1.14
biopolymer_sequence="CARCWVAMTPAGNASASA [HC279]" numeric_readout=1.01
